Molecular target: Protein translocase subunit SecA (Escherichia coli (strain K12))
Assay: Assay to Identify E. coli SecA ATPase Inhibitors
Type: functional
Parameters: scale not given: direction of the effect not stated beside the values
Details: 30 µM
Entries with a potency or affinity are not part of this list.
Form field: Percent Effect (one value per entry).
Provide the reading as a plain figure in %.

In the examples that follow, each entry is paired with its recorded Percent Effect.
> print(dat)
                                   molecule  unit.of.measurement  experimental.result
1   Cc1ccoc1-c1nnc(CN2CCn3c(nnc3C3CC3)C2)o1                    %                -3.51
2         CC(C)c1cc(NC(=O)CN2CCNC(=O)C2)on1                    %              -0.0493
3  CNc1cc(C2CCCN2C(=O)c2ccc3oc(=O)n(C)c3c2)ccn1 (stereo unspecified)                    %                -1.24
4     COCc1nc(C(=O)NS(=O)(=O)c2ccc(C)s2)cs1                    %                -1.18
5  CN1CCC/C1=N\S(=O)(=O)c1ccc(NC(=O)CCc2cccs2)cc1                    %                 2.31

query: Return the recorded Percent Effect value; entry: Cn1ncc(NCc2cc(F)cc(F)c2)c(Cl)c1=O
result: -3.8

query: Return the recorded Percent Effect value; entry: CCc1ccc(CN2CCC3(CC2)NC(=O)CC3c2ccncc2)o1 (stereo unspecified)
result: -9.93

query: Return the recorded Percent Effect value; entry: CCNc1cc2c(nn1)CCN(C(=O)c1cc3nc(C)ccc3o1)C2
result: -8.41

query: Return the recorded Percent Effect value; entry: CN(Cc1ccccc1)CC(O)Cn1cnc2c(cnn2C)c1=O (stereo unspecified)
result: -1.52

query: Return the recorded Percent Effect value; entry: CNc1nc2c(s1)C(=O)CN(C(=O)NCc1ccccc1)C2
result: -2.61

query: Return the recorded Percent Effect value; entry: CCS(=O)(=O)CCN1CCC(N(C)Cc2noc(C(C)C)n2)C1 (stereo unspecified)
result: -8.69
